System: Klebsiella aerogenes DSM 30053
Assay: fold change of Putrescine concentration vs plate DMSO controls (fold change (ratio)); higher = more amine produced, active = hit call of the paper (significant change in both replicates, either direction)
Details: incubation time: 27 h, anaerobic, 37 °C
Structures can show the parent of a compound that is named as a salt.
assayEndpoint: fold change of Putrescine concentration
# answer = number (no unit)

Solved cases (5 shown):
{"columns": ["compound", "fold change of Putrescine concentration"],
 "data": [
  ["NC(=O)OCC(O)COc1ccc(Cl)cc1 (stereo not drawn) [Chlorphensin carbamate] (20 µM)", 0.913],
  ["CN1[C@@H]2CC[C@H]1C[C@@H](OC(=O)c1c[nH]c3ccccc13)C2 [Tropisetron hydrochloride] (20 µM)", 0.952],
  ["COc1ccccc1OCC(O)CO (stereo not drawn) [Guaifenesin] (20 µM)", 1.01],
  ["CC(C)(Sc1cc(C(C)(C)C)c(O)c(C(C)(C)C)c1)Sc1cc(C(C)(C)C)c(O)c(C(C)(C)C)c1 [Probucol] (20 µM)", 0.983],
  ["Cn1cnc2c1c(=O)[nH]c(=O)n2C [Theobromine] (20 µM)", 0.991]
]}

Given Cc1c(O)c(=O)n(-c2ccccc2)n1C [Antipyrine, 4-hydroxy] (20 µM) , respond with its fold change of Putrescine concentration. 0.956

Given CCCOc1ccc2[nH]c(NC(=O)OC)nc2c1 [Oxibendazol] (20 µM) , respond with its fold change of Putrescine concentration. 1.02

Given Nc1nc2c(ncn2COCCO)c(=O)[nH]1 [Acyclovir] (20 µM) , respond with its fold change of Putrescine concentration. 0.983

###

Test system: Klebsiella aerogenes DSM 30053
Experiment: fold change of Histamine concentration vs plate DMSO controls (fold change (ratio)); higher = more amine produced, active = hit call of the paper (significant change in both replicates, either direction)
Conditions: incubation time: 27 h, anaerobic, 37 °C
Structures can show the parent of a compound that is named as a salt.
Each record here notes measured fold change of Histamine concentration.
# answer = number (no unit)

Solved cases (3 shown):
{"columns": ["molecule", "fold change of Histamine concentration"],
 "data": [
  ["CCCN(CCC)CCc1cccc2c1CC(=O)N2 [Ropinirole hydrochloride] (20 µM)", 1.08],
  ["O=c1[nH]c(=O)n([C@H]2C[C@H](O)[C@@H](CO)O2)cc1/C=C/Br [Brivudine] (20 µM)", 0.978],
  ["CCN(CC)CCOC(=O)c1ccc(N)cc1 [Procaine hydrochloride] (20 µM)", 0.974]
]}

Given COc1ccccc1N1CCN(CCCCNC(=O)c2ccc3ccccc3c2)CC1 (20 µM) , report its fold change of Histamine concentration on Klebsiella aerogenes DSM 30053. 0.972

Given CC(CNC1CCCCC1)OC(=O)c1ccccc1 (stereo not given) [Hexylcaine hydrochloride] (20 µM) , report its fold change of Histamine concentration on Klebsiella aerogenes DSM 30053. 1.02

###

Each record here notes measured growth.
Test system: Escherichia coli IAI1
Test: growth (OD595) fold change vs plate DMSO controls (fold change (ratio)); higher = more growth
Settings: incubation time: 27 h, anaerobic, 37 °C
Where a name gives a salt, the structure may show the parent alone.

{"columns": ["molecule", "testResult"],
 "data": [
  ["Cc1onc(-c2c(Cl)cccc2Cl)c1C(=O)N[C@@H]1C(=O)N2[C@@H]1SC(C)(C)[C@@H]2C(=O)O [Dicloxacillin sodium salt hydrate] (20 µM)", 0.996],
  ["OC[C@H]1O[C@@H](O[C@H]2[C@H](O)[C@@H](O)[C@H](O)O[C@@H]2CO)[C@H](O)[C@@H](O)[C@H]1O [Lactose] (50 µM)", 1.02],
  ["c1ccc2c(c1)-c1cccc3c1c-2cc1ccccc13 [Benzo[b]fluoranthene] (20 µM)", 0.997],
  ["CC(C)(C)NC(=O)[C@H]1CC[C@H]2[C@@H]3CC[C@H]4NC(=O)C=C[C@]4(C)[C@H]3CC[C@]12C [Finasteride] (20 µM)", 0.998]
]}

# input for lookup
Given C[C@]12CC[C@@H]3c4ccc(O)cc4CC[C@H]3[C@@H]1CCC2=O [Estrone] (20 µM) , respond with its growth. 1.02

Reference source: the supplement of paper PMC12494721
